- METHOD DESCRIPTION: yeast display, Sf9 membrane polyspecificity reagent, FACS + sequencing; frameworks hold sequencing errors

{"columns": ["CONSTRUCT SEQUENCE", "polyreactivity (PSR sort gate)"],
 "data": [
  ["QVQLVESGGGLVQAGGSLRLSCAASGFTFRKNDMGWYRQAPGKERELLAAISSGGGRTYYADSVKWRFTISRDNAKNTVYLQMNSLKQEDTAVYYCNADDGYYVGLSSAIYDYCGQGTQVTVSS", "high polyreactivity"],
  ["QVQLVESGGGLVQAGGSLRLSCAASGSILNDYAMGWYRQAPGKERELVAGISRGGGTYYADSVKGRFTISRDNAKNTVYLQMNSLKPEDTAVYYCAKRIYWYHYRYDYWGQGTQVTVSS", "high polyreactivity"],
  ["QVQLVESGGGLVQAGGSLRLSCAASGRIFSRNAMGWYRQAPGKERELVAAISGSGTSTYYAVSVKGRFTISRDNAKNTVYLQMNSLKPEDTAVSYCAADYPAVISIRRYDYWGQGTQVTVSS", "low polyreactivity"],
  ["QVQLVESGGGLVHAGGSLRLSCAASGSTLGSYAMGWYRQAPGKERELVARITTGGGTSYADSVKGRFTISRDNAKNTVYLQMNSLKPEDTAVYYCAATFIYGARTYGYWGQGTQVTVSS", "high polyreactivity"],
  ["QVQLVESGGGLVQAGGSLRLSCAASGRIFPYYAMGWYIQAPGKERELVAAIDGIGDTTYYADSVKGRFTISRDNAKNTVYLQMNSLKPEDTAVYYCNADGDAYYWGSYDEEDYWGQGTQVTVSS", "low polyreactivity"]
]}
